biological target: ΔF508-CFTR (Homo sapiens, UniProt P13569, DEL508-508); assay: Fluorescence (YFP-H148Q/I152L) I− influx assay of ΔF508-CFTR potentiator activity in FRT cells; type: cell-based; set-up: expressed in transfected cells; conditions: sulfonamide containing compounds, 27° C. 24 h, forskolin 20 μM, read-out: Ka
Sequence (P13569 with tags, fused parts or gaps DEL508-508): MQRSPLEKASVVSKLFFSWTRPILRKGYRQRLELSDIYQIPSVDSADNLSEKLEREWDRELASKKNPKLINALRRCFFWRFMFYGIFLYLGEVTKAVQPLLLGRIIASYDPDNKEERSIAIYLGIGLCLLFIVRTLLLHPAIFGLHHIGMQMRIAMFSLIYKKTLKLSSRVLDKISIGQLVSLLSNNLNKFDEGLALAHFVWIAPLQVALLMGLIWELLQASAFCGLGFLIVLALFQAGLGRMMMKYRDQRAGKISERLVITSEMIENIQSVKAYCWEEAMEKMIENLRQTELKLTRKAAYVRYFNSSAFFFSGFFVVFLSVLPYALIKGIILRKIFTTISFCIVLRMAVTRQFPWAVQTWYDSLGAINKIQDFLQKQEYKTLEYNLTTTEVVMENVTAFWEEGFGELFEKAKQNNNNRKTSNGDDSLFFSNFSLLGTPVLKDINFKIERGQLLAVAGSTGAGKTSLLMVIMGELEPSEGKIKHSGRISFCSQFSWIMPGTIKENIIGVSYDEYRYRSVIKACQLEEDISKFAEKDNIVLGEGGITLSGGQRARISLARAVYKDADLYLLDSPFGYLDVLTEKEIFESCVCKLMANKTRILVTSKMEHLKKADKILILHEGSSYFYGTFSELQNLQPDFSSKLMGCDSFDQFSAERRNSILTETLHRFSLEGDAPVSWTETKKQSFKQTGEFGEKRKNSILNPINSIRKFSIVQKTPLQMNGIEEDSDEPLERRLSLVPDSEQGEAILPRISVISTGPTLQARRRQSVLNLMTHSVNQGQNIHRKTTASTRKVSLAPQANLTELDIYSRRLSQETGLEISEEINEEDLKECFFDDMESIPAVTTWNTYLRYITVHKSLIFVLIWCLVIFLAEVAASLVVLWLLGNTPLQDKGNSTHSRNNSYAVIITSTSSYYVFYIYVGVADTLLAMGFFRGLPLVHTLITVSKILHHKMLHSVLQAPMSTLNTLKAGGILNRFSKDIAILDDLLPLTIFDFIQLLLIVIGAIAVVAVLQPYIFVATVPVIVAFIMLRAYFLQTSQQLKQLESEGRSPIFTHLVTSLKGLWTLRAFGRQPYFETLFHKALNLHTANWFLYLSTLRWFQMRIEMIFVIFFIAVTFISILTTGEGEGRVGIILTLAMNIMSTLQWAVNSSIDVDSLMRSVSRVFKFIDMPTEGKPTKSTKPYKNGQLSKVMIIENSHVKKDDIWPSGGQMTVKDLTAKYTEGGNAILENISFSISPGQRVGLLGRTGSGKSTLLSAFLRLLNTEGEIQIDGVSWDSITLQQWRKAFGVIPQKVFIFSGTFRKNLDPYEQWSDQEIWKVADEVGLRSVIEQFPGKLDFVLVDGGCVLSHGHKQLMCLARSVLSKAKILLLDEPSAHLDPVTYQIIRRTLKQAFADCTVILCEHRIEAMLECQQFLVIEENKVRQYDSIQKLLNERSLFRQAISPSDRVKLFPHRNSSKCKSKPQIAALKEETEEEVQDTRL
measured-quantity: pEC50
The quantity pEC50 is defined as the negative base-10 logarithm of the molar concentration.

Solved entries:
{"compound": "CCN(c1ccccc1)S(=O)(=O)c1ccc2[nH]cc(C(=O)NCCC3=CCCCC3)c(=O)c2c1", "pEC50": 6.62}
{"compound": "CCN(c1cccc(C)c1)S(=O)(=O)c1ccc2[nH]cc(C(=O)NCC3CCCO3)c(=O)c2c1 (stereo not shown)", "pEC50": 5.95}
{"compound": "CCC(C)NC(=O)c1c[nH]c2ccc(S(=O)(=O)N(C)c3ccccc3C)cc2c1=O (stereo not shown)", "pEC50": 5.89}

Moving on to the next compound.
ΔF508-CFTR (Homo sapiens, UniProt P13569, DEL508-508) data for `CCN(c1ccccc1)S(=O)(=O)c1ccc2[nH]cc(C(=O)NC3CCCCCC3)c(=O)c2c1` ; its pEC50: 7.70
